These entries and their values trace back to patent US20240174690A1.

System: GP2D cells
procedure summary: GP2D proliferation assay (120 h) (colorectal cancer, G12D)
Format: cell-based
Please provide measured IC50 for the entries that follow.
Numeric answer only, unit nM assumed.

The compound listed as C[C@H](Oc1cc(-n2cncc3ccnc2-3)nc(-c2noc3c2CCC[C@@]32CCCc3sc(N)c(C#N)c32)n1)[C@@H]1CCCN1C shows IC50 equal to 463

IC50 for C[C@H](Oc1cc(N2CCNC[C@]23CCOC3)nc(-c2noc3c2CCC[C@@]32CCCc3sc(N)c(C#N)c32)n1)[C@@H]1CCCN1C is 3

The recorded IC50 for CO[C@@H]1C[C@@H]([C@H](C)Oc2cc(-c3ccn(C)n3)nc(-c3noc4c3CCC[C@@]43CCCc4sc(N)c(C#N)c43)n2)N(C)C1 is 394

According to the records, this compound C[C@H](Oc1cc(N2CCNC2=O)nc(-c2noc3c2CCC[C@@]32CCCc3sc(N)c(C#N)c32)n1)[C@@H]1CCCN1C displays IC50 of 22

The compound identified as C[C@H](Oc1cc(-n2ccnc2)nc(-c2noc3c2CCC[C@@]32CCCc3sc(N)c(C#N)c32)n1)[C@@H]1CCCN1C registered its IC50 at 585

The compound listed as C[C@H](Oc1cc(N2CCNC3(CC3)C2)nc(-c2noc3c2CCC[C@@]32CCCc3sc(N)c(C#N)c32)n1)[C@@H]1C[C@@H](F)CN1C has a reported IC50 of 1

GET /value?item= C[C@H](Oc1cc(N2C[C@H](C)N(C)[C@@H](C)C2)nc(-c2noc3c2CCC[C@@]32CCCc3sc(N)c(C#N)c32)n1)[C@@H]1CCCN1C &field=IC50 returns 107

Recorded result, C[C@H](Oc1cc(N2CC3CCC(C2)N3)nc(-c2noc3c2CCC[C@@]32CCCc3sc(N)c(C#N)c32)n1)[C@@H]1CCCN1C , IC50: 49

Value of measured IC50 for the entry CNC(=O)c1ccn(-c2cc(O[C@@H](C)[C@@H]3CCCN3C)nc(-c3noc4c3CCC[C@@]43CCCc4sc(N)c(C#N)c43)n2)n1 : 57

Form: compound = C[C@H](Oc1cc(-n2cc3ccn([C@@H]4CCOC4)c(=O)c3n2)nc(-c2noc3c2CCC[C@@]32CCCc3sc(N)c(C#N)c32)n1)[C@@H]1CCCN1C ; IC50 = 137

For reference, reported IC50 for C[C@H](Oc1cc(-c2cnn(C)n2)nc(-c2noc3c2CCC[C@@]32CCCc3sc(N)c(C#N)c32)n1)[C@@H]1CCCN1C stands at 824

According to the records, this compound C[C@H](Oc1cc([C@@H]2CCOC2)nc(-c2noc3c2CCC[C@@]32CCCc3sc(N)c(C#N)c32)n1)[C@@H]1CCCN1C displays IC50 of 26

Data point: C[C@H](Oc1cc(N2CCOC3(COC3)C2)nc(-c2noc3c2CCC[C@@]32CCCc3sc(N)c(C#N)c32)n1)[C@@H]1CCCN1C ; IC50 = 37

The compound listed as C[C@H](Oc1cc(-n2ccc(C(=O)N3CCCC3)n2)nc(-c2noc3c2CCC[C@@]32CCCc3sc(N)c(C#N)c32)n1)[C@@H]1CCCN1C has a reported IC50 of 136

Entry C[C@H](Oc1cc(-n2cc3ccn(C[C@H]4CCOC4)c(=O)c3n2)nc(-c2noc3c2CCC[C@@]32CCCc3sc(N)c(C#N)c32)n1)[C@@H]1CCCN1C — recorded IC50 = 122
